tested on: kochia (Kochia scoparia); experiment: Test C postemergence, plant response rating; format: in vivo; details: Bassia scoparia, post-emergence, 62 g ai/ha, scale 0 to 100 (0 no effect, 100 complete control)

compound	quantity.unit	pest or weed control at 62 g/ha
O=C(CCC(F)(F)F)c1c(Cl)cccc1Oc1ncc(Cl)cn1 [Compound 107]	%	95
C=CCCOC(=O)c1c(Br)cccc1Oc1ncc(Cl)cn1 [Compound 21]	%	90
CC(CC(F)(F)F)OC(=O)c1c(Br)cccc1Oc1ncc(Cl)cn1 (stereo not shown) [Compound 16]	%	80
O=C(OCCC(F)(F)F)c1c(Cl)cccc1Oc1ncc(Cl)cn1 [Compound 15]	%	95

----------
test system: pigweed (Amaranthus retroflexus); test: Test A preemergence, visual injury rating; format: in vivo; settings: 125 g ai/ha, 0 to 100 scale (0 no effect, 100 complete control)
This listing pairs compounds with measured Pigweed plant response rating.

compound	Pigweed plant response rating
N#CCOC(=O)c1c(Br)cccc1Oc1ncc(Cl)cn1 [Compound 40]	40
CC(CN(C)C(=O)c1c(Br)cccc1Oc1ncc(Cl)cn1)C(F)(F)F (stereo not drawn) [Compound 18]	10
CC(=NOC(C)C)c1c(F)cccc1Oc1ncc(Cl)cn1 [Compound 76]	50
O=C(OCCC(F)(F)F)c1cc(Br)ccc1Oc1ncc(Cl)cn1 [Compound 94]	0
N#Cc1ccc(Oc2ncc(Cl)cn2)c(C(=O)OCCC(F)(F)F)c1 [Compound 64]	0
C=C(Br)COC(=O)c1c(Br)cccc1Oc1ncc(Cl)cn1 [Compound 61]	100

----------
tested on: pigweed (Amaranthus retroflexus); assay: Test A postemergence, visual injury rating; type: in vivo; conditions: 125 g ai/ha, 0 is no effect, 100 is complete control
This listing pairs compounds with measured Pigweed plant response rating (0 to 100 scale).
experimental.endpoint: Pigweed plant response rating (0 to 100 scale)

test.smiles	value.reported
FC(F)(F)C(F)(F)COCc1c(Br)cccc1Oc1ncc(Cl)cn1	60
N#Cc1cccc(Oc2ncc(Cl)cn2)c1C(=O)OCCC(F)(F)F	100
C#CCCOC(=O)c1c(Br)cccc1Oc1ncc(Cl)cn1	100
O=C(OCCC(F)(F)F)c1ccccc1Oc1ncc(Cl)cn1	20
O=C(OCCCC(F)(F)F)c1c(Oc2ncc(Cl)cn2)cccc1C(F)(F)F	90
O=C(OCC1CCCC1)c1c(Br)cccc1Oc1ncc(Cl)cn1	60
FC(F)(F)CCOCc1c(Br)cccc1Oc1ncc(Cl)cn1	100
O=C(OC1CCCC1)c1c(Br)cccc1Oc1ncc(Cl)cn1	0
C=C(C)COC(=O)c1c(Br)cccc1Oc1ncc(Cl)cn1	100

----------
This listing pairs molecules with measured Galium plant response rating (0 to 100 scale).
test system: galium (catchweed bedstraw, Galium aparine); test: Test A postemergence, visual injury rating; assay type: in vivo; settings: 500 g ai/ha, 0 is no effect, 100 is complete control
experimental.endpoint: Galium plant response rating (0 to 100 scale)

molecule	value.reported
N#CCCOC(=O)c1c(Br)cccc1Oc1ncc(Cl)cn1	100
CC(C)(C)OC(=O)c1c(Br)cccc1Oc1ncc(Cl)cn1	100
C=C(Br)COC(=O)c1c(Br)cccc1Oc1ncc(Cl)cn1	100
O=C(OCC(F)(F)F)c1c(F)cccc1Oc1ncc(Cl)cn1	10
O=C(OCC1CCC1)c1c(Br)cccc1Oc1ncc(Cl)cn1	90
N#CCOC(=O)c1c(C#N)cccc1Oc1ncc(Cl)cn1	0
N#Cc1cccc(Oc2ncc(Cl)cn2)c1C(=O)OCCC(F)(F)F	100
O=C(SCC(F)(F)F)c1c(Br)cccc1Oc1ncc(Cl)cn1	90
O=C(OC1CCC1)c1c(Br)cccc1Oc1ncc(Cl)cn1	100
O=C(OCC1CCCC1)c1c(Br)cccc1Oc1ncc(Cl)cn1	90
O=C(OCC1CC1(F)F)c1c(Br)cccc1Oc1ncc(Cl)cn1 (centres unmarked)	100
CCCC(=O)c1c(Oc2ncc(Cl)cn2)cccc1C(F)(F)F	100
O=C(OCC(F)(F)F)c1c(F)cccc1Oc1ncc(Br)cn1	0
CC(CN(C)C(=O)c1c(Br)cccc1Oc1ncc(Cl)cn1)C(F)(F)F (centres unmarked)	0

----------
system: rice (Oryza sativa); assay: Test B flooded paddy test, plant response rating; assay type: in vivo; conditions: 250 g ai/ha; Flood; scale of 0 to 100 where 0 is no effect and 100 is complete control; 13 to 15 days

test.smiles	Plant response rating, Rice
C#CCOC(=O)c1c(Br)cccc1Oc1ncc(Cl)cn1	0
N#CCc1ccccc1Oc1ncc(Cl)cn1	0
CC(=O)c1c(Br)cccc1Oc1ncc(Cl)cn1	0
CCOc1cccc(Oc2ncc(Cl)cn2)c1C(=O)OCCC(F)(F)F	70
C#CCCOC(=O)c1c(Br)cccc1Oc1ncc(Cl)cn1	0
N#Cc1cccc(Oc2ncc(Cl)cn2)c1C(=O)CCC(F)(F)C(F)(F)F	0
N#Cc1cccc(Oc2ncc(Cl)cn2)c1NCCCC(F)(F)F	35
COc1cccc(Oc2ncc(Cl)cn2)c1C(=O)OCCC(F)(F)F	40
O=C(OC(CCl)CCl)c1c(Br)cccc1Oc1ncc(Cl)cn1	0
FC(F)(F)CCOCc1c(Br)cccc1Oc1ncc(Cl)cn1	0
N#CCCOC(=O)c1c(Br)cccc1Oc1ncc(Cl)cn1	0
FC(F)(F)CCCCc1c(Cl)cccc1Oc1ncc(Cl)cn1	50
CC(=NOC(C)C)c1c(Cl)cccc1Oc1ncc(Cl)cn1	0
FC(F)(F)CCCc1c(Br)cccc1Oc1ncc(Cl)cn1	40
O=C(OCC(F)(F)C(F)F)c1c(Br)cccc1Oc1ncc(Cl)cn1	20
O=C(OCCC(F)(F)F)c1cc(Br)ccc1Oc1ncc(Cl)cn1	0
CCCCOC(=O)c1c(Br)cccc1Oc1ncc(Cl)cn1	0
O=Cc1c(Cl)cccc1Oc1ncc(Cl)cn1	0

----------
system: windgrass (Apera spica-venti); assay: Test C preemergence, plant response rating; type: in vivo; settings: 31 g ai/ha, scale 0 to 100
experimental.endpoint: Plant response rating, Windgrass

test.smiles	target.of.assay	value.reported
FC(F)(F)CCCCc1c(Br)cccc1Oc1ncc(Cl)cn1	windgrass (Apera spica-venti)	100
O=C(CCCC(F)(F)F)c1c(Cl)cccc1Oc1ncc(Cl)cn1	windgrass (Apera spica-venti)	85
O=C(CCCCC(F)(F)F)c1c(Br)cccc1Oc1ncc(Cl)cn1	windgrass (Apera spica-venti)	30
CCCC(=O)c1c(Oc2ncc(Cl)cn2)cccc1C(F)(F)F	windgrass (Apera spica-venti)	30

----------
system: giant foxtail (Setaria faberii); test: Test A preemergence, visual injury rating; format: in vivo; conditions: 31 g ai/ha, 0 to 100 scale, 0 no effect, 100 complete control
Response field label takes satisfied when Plant response rating, Foxtail, Giant is strictly below 10 and not satisfied in all other cases.

compound	class
CC(=NOC(C)C)c1c(Br)cccc1Oc1ncc(Cl)cn1 [Compound 105]	satisfied
Cc1ccc(Oc2ncc(Cl)cn2)c(C(=O)OCCC(F)(F)F)c1 [Compound 54]	satisfied
O=C(SCCC(F)(F)F)c1c(Br)cccc1Oc1ncc(Cl)cn1 [Compound 71]	not satisfied
O=C(CCCCC(F)(F)F)c1c(Br)cccc1Oc1ncc(Cl)cn1 [Compound 82]	not satisfied
O=C(OCCC(F)(F)F)c1cc(Br)ccc1Oc1ncc(Cl)cn1 [Compound 94]	satisfied
O=C(OCCC(F)(F)F)c1cc(Cl)ccc1Oc1ncc(Cl)cn1 [Compound 88]	satisfied
N#Cc1cccc(Oc2ncc(Cl)cn2)c1COCCC(F)(F)F [Compound 80]	not satisfied
O=C(CCCC(F)(F)F)c1c(Br)cccc1Oc1ncc(Cl)cn1 [Compound 77]	not satisfied
FC(F)(F)CCCc1c(Cl)cccc1Oc1ncc(Cl)cn1 [Compound 122]	satisfied
FC(F)(F)COCc1c(Br)cccc1Oc1ncc(Cl)cn1 [Compound 62]	not satisfied
O=C(NCCC(F)(F)F)c1c(Br)cccc1Oc1ncc(Cl)cn1 [Compound 93]	satisfied
O=C(CCC(F)(F)F)c1c(Cl)cccc1Oc1ncc(Cl)cn1 [Compound 107]	not satisfied
O=C(OCC(F)(F)C(F)(F)F)c1c(F)cccc1Oc1ncc(Cl)cn1 [Compound 5]	satisfied
CN(CCC(F)(F)F)C(=O)c1c(Br)cccc1Oc1ncc(Cl)cn1 [Compound 19]	satisfied
FC(F)(F)CCOCc1c(Br)cccc1Oc1ncc(Cl)cn1 [Compound 66]	not satisfied
FC(F)(F)CCCCc1c(Cl)cccc1Oc1ncc(Cl)cn1 [Compound 137]	not satisfied

----------
tested on: nutsedge, yellow (yellow nutsedge, Cyperus esculentus); test: Test C preemergence, plant response rating; format: in vivo; conditions: Preemergence; 62 g ai/ha; scale 0 to 100
This listing pairs compounds with measured Plant response rating, Nutsedge, Yellow.
experimental.endpoint: Plant response rating, Nutsedge, Yellow

compound	value.reported
N#CC(CCCC(F)(F)F)c1ccccc1Oc1ncc(Cl)cn1 (stereo not drawn) [Compound 144]	60
CCCCC(=O)c1c(Br)cccc1Oc1ncc(Cl)cn1 [Compound 79]	0
CCCC(=O)c1c(Oc2ncc(Cl)cn2)cccc1C(F)(F)F [Compound 136]	0
O=C(CCCC(F)(F)F)c1c(Br)cccc1Oc1ncc(Cl)cn1 [Compound 77]	0
O=C(CCCC(F)(F)F)c1c(Oc2ncc(Cl)cn2)cccc1C(F)(F)F [Compound 125]	0
O=C(CCC(F)(F)F)c1c(Br)cccc1Oc1ncc(Cl)cn1 [Compound 92]	5
